experiment: Single-dose renal impairment PK and safety study in non-Fabry subjects (Example 1); format: in vivo, human; settings: human, plasma, oral, 150 mg, Comparison to Example 1 Moderate Impairment (migalastat concentration), non-Fabry, moderate impairment; 48 Hrs Post
Quantity kind: concentration at 48 h (ng/mL)
Lab book: enter the figure in ng/mL, no units written.

Query: Which concentration at 48 h is listed for OC[C@H]1NC[C@H](O)[C@@H](O)[C@H]1O ?
Response: 64.5

----------
experiment: Single-dose renal impairment PK and safety study in non-Fabry subjects (Example 1); assay type: in vivo, human; details: human, plasma, oral, 150 mg, Comparison to Example 1 Moderate Impairment (migalastat concentration), non-Fabry, moderate impairment; 3 Hrs Post
Quantity kind: concentration at 3 h (µg/mL)
Output spec: scalar in µg/mL, unitless text.

Query: Can you share its concentration at 3 h? I mean this compound: OC[C@H]1NC[C@H](O)[C@@H](O)[C@H]1O
Response: 1.87

----------
experiment: Single-dose renal impairment PK and safety study in non-Fabry subjects (Example 1); type: in vivo, human; settings: human, plasma, po, 150 mg, single oral 150 mg migalastat HCl; severe renal impairment; read-out: t1/2 in plasma, arithmetic mean [min, max] (converted)
Quantity kind: half-life (h)
# number only, unit h dropped from output

Query: Given the molecule OC[C@H]1NC[C@H](O)[C@@H](O)[C@H]1O , what is its reported half-life?
Response: 32.3

----------
assay: Single-dose renal impairment PK and safety study in non-Fabry subjects (Example 1); type: in vivo, human; settings: human, plasma, oral, 150 mg, single 150 mg migalastat HCl, non-Fabry; Mild (N = 8); read-out: C48
Quantity kind: concentration at 48 h (ng/mL)
Please give a number only; it is taken to be in ng/mL.

Query: Item under review: OC[C@H]1NC[C@H](O)[C@@H](O)[C@H]1O . Reported concentration at 48 h?
Response: 9.34

----------
assay: Single-dose renal impairment PK and safety study in non-Fabry subjects (Example 1); assay type: in vivo, human; conditions: human, plasma, po, 150 mg, single oral 150 mg migalastat HCl; normal renal function; read-out: t1/2 in plasma, arithmetic mean [min, max] (converted)
Quantity kind: half-life (h)
Hi! Could you send only the number? It should be in h, unit omitted.

Query: // lookup half-life for OC[C@H]1NC[C@H](O)[C@@H](O)[C@H]1O [migalastat]
Response: 6.4

----------
experiment: Single-dose renal impairment PK and safety study in non-Fabry subjects (Example 1); format: in vivo, human; settings: human, plasma, oral, 150 mg, single 150 mg migalastat HCl, non-Fabry; Moderate (N = 8)
Quantity kind: AUC(0-inf) (ng·h/mL)
Number only, in ng·h/mL; omit the unit.

Query: Find the recorded AUC(0-inf) belonging to OC[C@H]1NC[C@H](O)[C@@H](O)[C@H]1O and report it.
Response: 22500

----------
assay: Single-dose renal impairment PK and safety study in non-Fabry subjects (Example 1); assay type: in vivo, human; conditions: human, plasma, po, 150 mg, single oral 150 mg migalastat HCl; mild renal impairment; read-out: t1/2 in plasma, arithmetic mean [min, max] (converted)
Quantity kind: half-life (h)
Write the number in h without appending the unit.

Query: // query half-life value for entry OC[C@H]1NC[C@H](O)[C@@H](O)[C@H]1O
Response: 7.7

The origin of these recorded values is patent US20210379035A1.
